B1: LINE1-mini (parent)
chain: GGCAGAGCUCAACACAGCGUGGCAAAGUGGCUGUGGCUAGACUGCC

- Variants of: B1
- ASSAY: self-cleavage, relative activity (ratio to wild type); higher = more cleavage; in vitro, sequencing; the parent is a self-cleaving ribozyme
VALUE_KIND: self-cleavage

Okay, here is my list. What is self-cleavage for each of these?
1. A6U C45A
2. G7C A16U

1. 0.66
2. 0.3

Below are 3 variants. Give each one its self-cleavage.
1. G35U U43G
2. G27C C37A
3. A11U C46A

0.07
0.06
0.09

The reported numbers originate from the RNAGym collection of RNA variant scans (doi:10.7554/elife.90254).
